This collection of values is drawn from paper PMC10499324.

List of k cat/K M values.
- assayed-system: hSIRT1-143 (Homo sapiens)
- Construct: Schematic of SIRT1-143 design, consisting of residues 143–512 and the region 641–665; SUMO (smt3) (N, cleaved yes); His tag (N, cleaved yes); made in house; host or cells: E. coli BL21 (DE3)
- Sequence (Q96EB6 143-512 limits assumed): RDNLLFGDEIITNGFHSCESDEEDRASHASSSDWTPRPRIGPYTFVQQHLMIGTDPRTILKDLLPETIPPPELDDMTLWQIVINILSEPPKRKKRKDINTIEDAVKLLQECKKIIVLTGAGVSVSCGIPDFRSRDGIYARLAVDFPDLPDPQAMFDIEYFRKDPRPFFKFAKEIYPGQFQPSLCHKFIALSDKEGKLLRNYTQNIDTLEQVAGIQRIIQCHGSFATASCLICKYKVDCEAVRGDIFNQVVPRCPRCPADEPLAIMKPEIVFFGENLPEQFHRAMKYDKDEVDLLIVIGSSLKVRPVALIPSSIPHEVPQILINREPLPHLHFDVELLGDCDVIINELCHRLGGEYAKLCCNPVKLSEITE
- Sequence (Q96EB6 641-665 limits assumed): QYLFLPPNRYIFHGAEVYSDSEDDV
- procedure-text: Enzyme-coupled continuous SIRT1 deacetylase kinetics assay (Michaelis-Menten)
- Type: biochemical
- particulars: peptide as substrate; without resveratrol
Where no end group is shown, it is not given here.
Enter your answer as a number in M⁻¹ s⁻¹; do not include the unit.

Examples with answers:
substance="^3VRGKAGK^AcGLGKGG^15 [Ac-H4]" quantitative_readout=1000
substance="^376STSRHKK^AcLMFKTE^388 (STSRHKK(Ac)LMFKTE; UniProt P04637 376-388, looked up, fragment) [Ac-p53, 13-mer SIRT1 peptide substrate with acetylated lysine, p53(K382)]" quantitative_readout=3000
substance="^9KSTGGK^AcAPRKQ^19 [Ac-H3]" quantitative_readout=500
substance="^376STSRHKK^AcWMFKTE^389 [Ac-p53W]" quantitative_readout=5000

For the substance ^2ASSSGSK^AcAEFIVG^14 (ASSSGSK(Ac)AEFIVG; UniProt P48729 2-14, looked up, fragment) [Ac-CSNK, 13-mer SIRT1 peptide substrate with acetylated lysine, casein kinase 1 alpha 1 (K8)] , what k cat/K M is on record? 700

====

List of k cat values.
- assayed-system: hSIRT1-143 (Homo sapiens, UniProt Q96EB6)
- Construct: Schematic of SIRT1-143 design, consisting of residues 143–512 and the region 641–665; SUMO (smt3) (N, cleaved yes); His tag (N, cleaved yes); made in house; host or cells: E. coli BL21 (DE3)
- procedure-text: Enzyme-coupled continuous SIRT1 deacetylase kinetics assay (Michaelis-Menten)
- Assay type: biochemical
- particulars: peptide as substrate; without resveratrol
Where no end group is shown, it is not given here.
Mention the unit after the number when you answer.

Examples with answers:
substance="^376STSRHKK^AcWMFKTE^389 [Ac-p53W]" result="0.06 ± 0.001 s⁻¹"
substance="^376STSRHKK^AcLMFKTE^388 (STSRHKK(Ac)LMFKTE; UniProt P04637 376-388, looked up, fragment) [Ac-p53, 13-mer SIRT1 peptide substrate with acetylated lysine, p53(K382)]" result="0.08 ± 0.009 s⁻¹"
substance="^9KSTGGK^AcAPRKQ^19 [Ac-H3]" result="0.06 ± 0.009 s⁻¹"
substance="^2ASSSGSK^AcAEFIVG^14 (ASSSGSK(Ac)AEFIVG; UniProt P48729 2-14, looked up, fragment) [Ac-CSNK, 13-mer SIRT1 peptide substrate with acetylated lysine, casein kinase 1 alpha 1 (K8)]" result="0.06 ± 0.002 s⁻¹"

Proceed to the following item.
Tell me reported k cat for ^3VRGKAGK^AcGLGKGG^15 [Ac-H4] , tested with hSIRT1-143 (Homo sapiens, UniProt Q96EB6). 0.09 ± 0.006 s⁻¹

====

- assayed-system: hSIRT1-143 (Homo sapiens)
- Construct: Schematic of SIRT1-143 design, consisting of residues 143–512 and the region 641–665; SUMO (smt3) (N, cleaved yes); His tag (N, cleaved yes); made in house; host or cells: E. coli BL21 (DE3)
- Sequence (Q96EB6 143-512 limits assumed): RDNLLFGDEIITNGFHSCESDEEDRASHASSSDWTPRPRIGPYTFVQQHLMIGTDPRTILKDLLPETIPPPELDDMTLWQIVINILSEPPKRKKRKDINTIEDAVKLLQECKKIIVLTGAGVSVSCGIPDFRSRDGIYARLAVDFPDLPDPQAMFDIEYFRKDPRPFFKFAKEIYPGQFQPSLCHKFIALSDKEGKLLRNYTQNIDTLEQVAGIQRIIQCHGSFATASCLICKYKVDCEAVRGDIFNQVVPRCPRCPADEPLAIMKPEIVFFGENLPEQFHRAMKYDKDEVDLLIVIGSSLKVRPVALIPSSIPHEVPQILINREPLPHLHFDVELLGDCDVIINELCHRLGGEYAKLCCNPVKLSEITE
- Sequence (Q96EB6 641-665 limits assumed): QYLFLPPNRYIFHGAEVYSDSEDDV
- procedure-text: Enzyme-coupled continuous SIRT1 deacetylase kinetics assay (Michaelis-Menten)
- Assay type: biochemical
- particulars: peptide as substrate; without resveratrol
Where no end group is shown, it is not given here.
# True = K M below 100 µM (exclusive); False = K M at/above 100 µM

Answered examples (4):
substance="^2ASSSGSK^AcAEFIVG^14 (ASSSGSK(Ac)AEFIVG; UniProt P48729 2-14, looked up, fragment) [Ac-CSNK, 13-mer SIRT1 peptide substrate with acetylated lysine, casein kinase 1 alpha 1 (K8)]" assayed_system="hSIRT1-143 (Homo sapiens)" label_value=True
substance="^376STSRHKK^AcLMFKTE^388 (STSRHKK(Ac)LMFKTE; UniProt P04637 376-388, looked up, fragment) [Ac-p53, 13-mer SIRT1 peptide substrate with acetylated lysine, p53(K382)]" assayed_system="hSIRT1-143 (Homo sapiens)" label_value=True
substance="^9KSTGGK^AcAPRKQ^19 [Ac-H3]" assayed_system="hSIRT1-143 (Homo sapiens)" label_value=False
substance="^376STSRHKK^AcWMFKTE^389 [Ac-p53W]" assayed_system="hSIRT1-143 (Homo sapiens)" label_value=True

Here's the next entry for you.
Threshold test, K M < 100 µM: ^3VRGKAGK^AcGLGKGG^15 [Ac-H4] False
